# Test system: TESK1;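 note: KINOMEscan kinase panel screen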
# measurement setup: concentration: 1 μM,replicates: in singlicate; n = 1
Field: %Inh. Provide a value for each of the compounds that follow.
Give the value, in units of %, as a plain number.

Quick one: %Inh of Cn1ccc2ncnc(Oc3ccc(NC(=O)Nc4ccnc(C(F)(F)F)c4)c(Cl)c3)c21 ? 0

Now give it for Cc1ccc(C(=O)Nc2ccc(Oc3ccc4nc(NC(=O)C5CC5)cn4c3)c(F)c2)c(=O)n1-c1ccccc1 too. 30

Ok, now FC(F)(F)c1cc(Br)cc(Nc2nccc(-c3cnn4ncccc34)n2)c1 11

Next: Cc1nnc(-c2ccc3occ(-c4ccc(S(C)=O)cc4)c3n2)o1 (centres unmarked) 0

Can you handle NC(=O)c1ccc(-c2cc3ncnc(SCC(=O)O)c3s2)cc1 next? 6

Now try CCn1c(-c2nonc2N)nc2cncc(Br)c21 . 19

# repeat for CCn1c(-c2nonc2N)nc2cncc(CNC3CCNCC3)c21.Cl 20

Then this compound: COc1cc(Nc2nccc(N3CCC(NC(=O)c4cccc(C#N)c4)C3)n2)cc(OC)c1OC (centres unmarked) 19

Lookup C[C@@H](Oc1cc(-n2cnc3ccc(-c4ccncc4)cc32)sc1C(N)=O)c1ccccc1Cl 37

Next: C[C@@H]1CNc2c(sc3ccc4nc(-c5ccc(O)cc5)ccc4c23)C(=O)N1 8

Now the compound O=c1[nH]cc(-c2ccc(O)cc2)c2sc(-c3ccncc3)cc12 0

Please give the result for CCNCC(Cc1ccccc1)NC(=O)c1cc(Br)c(-c2ccnc3[nH]ccc23)s1.Cl.Cl (centres unmarked) too. 24

Then what about the compound CCN1CCN(CCCC(=O)Nc2n[nH]c3nc(-c4ccc(O)cc4)c(Br)cc23)CC1 ? 0

Same again, this time with CS(=O)c1ccc(-c2coc3ccc(-c4n[nH]c(=O)o4)cc23)cc1 (centres unmarked) 0

Then this compound: O=C(Nc1cccc(Oc2ccc3nccn3n2)c1)Nc1cccc(C(F)(F)F)c1 11

Now the same for CS(=O)(=O)c1cccc(CNc2nc(Nc3ccc4c(c3)[C@@H]3C[C@@H]4CNC3=O)ncc2C(F)(F)F)c1 0

Do the same for Cc1n[nH]c2cc(Nc3ccnc(Nc4cccc(CN5CCOCC5)c4)n3)ccc12 please 27

Also CC(C)S(=O)(=O)N1CCN(Cc2ccc3c(c2)nc(NC(=O)c2ccsc2)n3C[C@H](O)c2ccccc2)CC1 , if possible. 37

Proceed to COc1cc2c(Nc3ccc(NC(=O)c4ccccc4)cc3)ncnc2cc1OCCCN1CCOCC1 37

# repeat for Cc1cccc(-c2nc(Nc3ccncc3)c3sccc3n2)n1 10
